Measured IC50 of individual entries
- assay_target: human plasma kallikrein (Homo sapiens (Human))
- Sequence (P03952 391-638): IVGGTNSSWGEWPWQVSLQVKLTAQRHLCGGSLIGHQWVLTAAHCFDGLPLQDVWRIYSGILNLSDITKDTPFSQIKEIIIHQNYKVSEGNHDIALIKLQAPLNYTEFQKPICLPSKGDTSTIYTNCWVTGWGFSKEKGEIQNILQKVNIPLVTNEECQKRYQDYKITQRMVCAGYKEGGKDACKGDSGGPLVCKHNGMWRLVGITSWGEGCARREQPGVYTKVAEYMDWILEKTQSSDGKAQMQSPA
- Sequence (P03952 20-390 partner): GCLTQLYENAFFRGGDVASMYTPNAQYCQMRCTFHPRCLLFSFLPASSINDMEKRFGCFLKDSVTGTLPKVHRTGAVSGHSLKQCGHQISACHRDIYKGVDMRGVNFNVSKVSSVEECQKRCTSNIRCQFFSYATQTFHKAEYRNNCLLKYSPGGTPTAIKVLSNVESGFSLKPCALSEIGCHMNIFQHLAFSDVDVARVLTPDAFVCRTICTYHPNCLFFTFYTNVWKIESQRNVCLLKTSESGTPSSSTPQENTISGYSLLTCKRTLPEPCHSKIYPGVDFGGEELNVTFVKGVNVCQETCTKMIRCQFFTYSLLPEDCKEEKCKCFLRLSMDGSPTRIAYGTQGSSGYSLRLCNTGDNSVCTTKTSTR
- run_description: Determination of the plasma kallikrein activity (fluorogenic substrate H-Pro-Phe-Arg-AMC)
- details: plasma kallikrein from Kordia 0.6 nM, 15 min preincubation, 30 min at 22° C., fluorescence
observation_type: IC50 (nM)

# molecule, assay_target, measurement
data = [
    ("CCC(C(=O)Nc1ccn2ncc(Cl)c2c1)n1cc(OC)c(-c2cc(Cl)ccc2C#N)cc1=O (racemic) [Example 40]", "human plasma kallikrein (Homo sapiens (Human))", 51),
    ("CCOC(=O)c1cnc2ccc(NC(=O)C(CCOC)n3cc(OC)c(-c4cc(Cl)ccc4C#N)cc3=O)cn12 (racemic) [Example 10]", "human plasma kallikrein (Homo sapiens (Human))", 7),
    ("CCCCc1nnc2ccc(NC(=O)C(CCOC)n3cc(OC)c(-c4cc(Cl)ccc4C#N)cc3=O)cn12 (racemic) [Example 24]", "human plasma kallikrein (Homo sapiens (Human))", 16),
    ("COc1cn(CC(=O)Nc2ccc3nc(C(=O)O)cn3c2)c(=O)cc1-c1cc(Cl)ccc1C#N [Example 6]", "human plasma kallikrein (Homo sapiens (Human))", 61),
    ("COCCC(C(=O)Nc1ccc2nccn2c1)n1cc(OC)c(-c2cc(Cl)ccc2C#N)cc1=O (racemic) [Example 13]", "human plasma kallikrein (Homo sapiens (Human))", 13),
    ("COCCC(C(=O)Nc1ccc2nnc(CN(C)C)n2c1)n1cc(OC)c(-c2cc(Cl)ccc2C#N)cc1=O (racemic) [Example 25]", "human plasma kallikrein (Homo sapiens (Human))", 23),
    ("N#Cc1ccc(Cl)cc1-c1cc(=O)n(C(Cc2cnco2)C(=O)Nc2ccc3nccn3c2)cc1Cl (racemic) [Example 30]", "human plasma kallikrein (Homo sapiens (Human))", 120),
    ("COCCC(C(=O)Nc1ccn2nccc2c1)n1cc(OC)c(-c2cc(Cl)ccc2C#N)cc1=O (single isomer, unassigned; enantiomer 1) [Example 36]", "human plasma kallikrein (Homo sapiens (Human))", 3.2),
    ("COCCC(C(=O)Nc1ccc2cncn2c1)n1cc(Cl)c(-c2cc(Cl)ccc2C#N)cc1=O (racemic) [Example 27]", "human plasma kallikrein (Homo sapiens (Human))", 50),
    ("CCC(C(=O)Nc1ccc2nc(C(=O)O)cn2c1)n1cc(OC)c(-c2cc(Cl)ccc2C#N)cc1=O (racemic) [Example 2]", "human plasma kallikrein (Homo sapiens (Human))", 16),
    ("COc1cn(C(C[C@@H]2CCCCO2)C(=O)Nc2ccc3nc(C(=O)O)cn3c2)c(=O)cc1-c1cc(Cl)ccc1C#N (mixture of isomers) [Example 9]", "human plasma kallikrein (Homo sapiens (Human))", 4.8),
    ("N#Cc1ccc(Cl)cc1-c1cc(=O)n(C(Cc2cnco2)C(=O)Nc2ccc3nccn3c2)cc1OC(F)F (racemic) [Example 31]", "human plasma kallikrein (Homo sapiens (Human))", 970),
    ("CCC(C(=O)Nc1ccc2nc(-c3ccc(F)cc3)cn2c1)n1cc(OC)c(-c2cc(Cl)ccc2C#N)cc1=O (racemic) [Example 18]", "human plasma kallikrein (Homo sapiens (Human))", 130),
    ("CCC(C(=O)Nc1ccc2ncc(Cl)n2c1)n1cc(OC)c(-c2cc(Cl)ccc2C#N)cc1=O (racemic) [Example 17]", "human plasma kallikrein (Homo sapiens (Human))", 24),
]

====

- assay_target: human plasma kallikrein (Homo sapiens (Human))
- run_description: Determination of the plasma kallikrein activity (fluorogenic substrate H-Pro-Phe-Arg-AMC)
- details: plasma kallikrein from Kordia 0.6 nM, 15 min preincubation, 30 min at 22° C., fluorescence
pIC50: −log10 of the molar value.
Tag: Y if measured pIC50 is not below 8, N if it is.

# compound, group_label
measured = [
    ("COc1cn(C(CC2CCC2)C(=O)Nc2ccc3nccn3c2)c(=O)cc1-c1cc(Cl)ccc1C#N (racemic)", "N"),
    ("CCC(C(=O)Nc1ccc2nccn2c1)n1cc(OC)c(-c2cc(Cl)ccc2C#N)cc1=O (racemic)", "N"),
    ("COCCC(C(=O)Nc1ccc2nccn2c1)n1cc(Cl)c(-c2cc(Cl)ccc2C#N)cc1=O (racemic)", "N"),
    ("N#Cc1ccc(Cl)cc1-c1cc(=O)n(C(Cc2cocn2)C(=O)Nc2ccc3nccn3c2)cc1Cl (racemic)", "N"),
    ("COCCC(C(=O)Nc1ccn2nccc2c1)n1cc(OC)c(-c2cc(Cl)ccc2C#N)cc1=O (racemic) [Example 35]", "Y"),
]
